method.summary: In vivo pharmacokinetic experiment in CD-1 female mice, intravenous
assay.setup: mouse, 2 mg/kg, CD-1 mice, 2 mpk, plasma
property: C0 (ng/mL)
// return numeric value only (unit: ng/mL, not printed)

Lookup: Could you share which C0 value was measured for NS(=O)(=O)OC[C@H]1[C@H](F)[C@@H](Nc2ncncc2C(=O)c2cc3c(s2)CCC[C@]32NCCc3ccc(F)cc32)C[C@@H]1O [Compound 93] ?
Found: 406

Lookup: Would you mind doing NS(=O)(=O)OC[C@H]1[C@H](F)[C@@H](Nc2ncncc2C(=O)c2cc3c(s2)C=C[C@]32NCCc3ccc(Cl)cc32)C[C@@H]1O [Compound 344] as well?
Found: 249

Lookup: Quick one: NS(=O)(=O)OC[C@H]1[C@H](F)[C@@H](Nc2ncncc2C(=O)c2cc3c(s2)CC[C@]32NCCc3ccc(Cl)cc32)C[C@@H]1O [Compound 132]
Found: 803

Lookup: Now consider NS(=O)(=O)OC[C@H]1[C@H](F)[C@@H](Nc2ncncc2C(=O)c2cc3c(s2)CCC[C@]32NCCc3ccc(Cl)cc32)C[C@@H]1O [Compound 90] .
Found: 431

All values here come from patent US20260297109A1.
